assay: Caco-2 permeability assay; type: in vitro ADME; conditions: human; Caco-2, 5 µM, pH 7.4/7.4, 3 h
measured-quantity: Papp A→B at 3 h, 5 µM (×10⁻⁶ cm/s)
Give the value, in units of ×10⁻⁶ cm/s, as a plain number.

In: Please give the measured Papp A→B at 3 h, 5 µM for this compound: COc1ccc(S(=O)(=O)N(C)C[C@H]2O[C@@H](n3cc(C#Cc4ccc(C(N)=O)cc4)c4c(N)ncnc43)[C@H](O)[C@@H]2O)cc1C#N [Compound 12r]
Out: 0.1

In: Could you share which Papp A→B at 3 h, 5 µM value was measured for CCN(C[C@H]1O[C@@H](n2cc(C#Cc3cccnc3)c3c(N)ncnc32)[C@H](O)[C@@H]1O)S(=O)(=O)c1ccc(OC)c(C#N)c1 [Compound 12l] ?
Out: 0.1

In: Param item = COc1ccc(S(=O)(=O)N(C)C[C@H]2O[C@@H](n3cc(C#Cc4cnc5ccccc5c4)c4c(N)ncnc43)[C@H](O)[C@@H]2O)cc1C#N [Compound 12q] ; retrieve measured Papp A→B at 3 h, 5 µM.
Out: 0.2

In: Would you mind telling me what Papp A→B at 3 h, 5 µM value was observed for COc1ccc(S(=O)(=O)N(C)C[C@H]2O[C@@H](n3cc(C#Cc4cccnc4)c4c(N)ncnc43)[C@H](O)[C@@H]2O)cc1C#N [Compound 12s] ?
Out: 0.4

---

Read-out record for SARS-CoV-2 nsp14 7-N MTase (Severe acute respiratory syndrome coronavirus 2): pIC50
Entry type: numeric. Quantity: pIC50, the -log10 of concentration in molar units.

In: Requested read-out: pIC50. Entry: CCN(C[C@H]1O[C@@H](n2cc(C#Cc3c[nH]c(=O)[nH]c3=O)c3c(N)ncnc32)[C@H](O)[C@@H]1O)S(=O)(=O)c1ccc(OC)c(C#N)c1 [Compound 12j]
Out: 7.15

In: Query: pIC50; subject: Nc1ncnc2c1c(C#Cc1cnc3ccccc3c1)cn2[C@@H]1O[C@H](CSCC[C@H](N)C(=O)O)[C@@H](O)[C@H]1O [TO507, reference compound]
Out: 7.17

In: // returns reported pIC50 for input CCN(C[C@H]1O[C@@H](n2cc(C#Cc3cnc4ccccc4c3)c3c(N)ncnc32)[C@H](O)[C@@H]1O)S(=O)(=O)c1ccc(OC)c(C#N)c1 [Compound 12e]
Out: 7.55

---

system: Calu-3 cells; test: Steady-state intracellular uptake in Calu-3 cells; type: in vitro ADME; conditions: Calu-3, 60 min incubation, 50 μM at t = 0
Would you mind telling me the reported EC (extracellular concentration in the media at t = 60 min) ± sd of each entry?
Provide the reading as a plain figure in µM.

In: I would be grateful if you could share the reported EC (extracellular concentration in the media at t = 60 min) ± sd for COc1ccc(S(=O)(=O)N(C)C[C@H]2O[C@@H](n3cc(C#Cc4cnc5ccccc5c4)c4c(N)ncnc43)[C@H](O)[C@@H]2O)cc1C#N [Compound 12q] .
Out: 5.6

In: Given COc1ccc(S(=O)(=O)N(C)C[C@H]2O[C@@H](n3cc(C#Cc4ccc(C(N)=O)cc4)c4c(N)ncnc43)[C@H](O)[C@@H]2O)cc1C#N [Compound 12r] , state its recorded EC (extracellular concentration in the media at t = 60 min) ± sd.
Out: 4.0

In: GET /values?readout=EC (extracellular concentration in the media at t = 60 min) ± sd&item= CCN(C[C@H]1O[C@@H](n2cc(C#Cc3cnc4ccccc4c3)c3c(N)ncnc32)[C@H](O)[C@@H]1O)S(=O)(=O)c1ccc(OC)c(C#N)c1 [Compound 12e]
Out: 5

In: Reported EC (extracellular concentration in the media at t = 60 min) ± sd, molecule COc1ccc(S(=O)(=O)N(C)C[C@H]2O[C@@H](n3cc(C#Cc4cccnc4)c4c(N)ncnc43)[C@H](O)[C@@H]2O)cc1C#N [Compound 12s] : ____
Out: 14.7
